Test system: OVCAR-4
experiment: NCI tumour cell line growth inhibition, 48 h
Activity calls are given as the source filed them. Rule as the data show it: active = GI50 up to about 1.1 µM and inactive = higher.
Outcome (select one): active, inactive

// below: answered molecules
[
  {
    "molecule": "COc1cc(Nc2nc3ccc(C(F)(F)F)cc3nc2-c2ccccc2)cc(OC)c1OC",
    "assigned class": "inactive"
  },
  {
    "molecule": "OC1c2ccccc2CC12Cc1ccccc1C2 (stereo not given)",
    "assigned class": "inactive"
  },
  {
    "molecule": "COc1ccc([C@@]23Oc4cc(OC)cc(OC)c4[C@]2(O)[C@H](O)[C@H](C(=O)N(C)C)[C@H]3c2ccccc2)cc1 [ROCAGLAMIDE]",
    "assigned class": "active"
  },
  {
    "molecule": "CC(=O)NC1C(OC(C)C(=O)NC(C(=O)NC(CCC(=O)NCCCNC2c3ccccc3Nc3cccc([N+](=O)[O-])c32)C(N)=O)C(C)C)C(O)C(CO)OC1(C)OCc1ccccc1 (stereo not given)",
    "assigned class": "inactive"
  },
  {
    "molecule": "O=C(O)CC(Cc1ccccc1)C(=O)O (stereo not given)",
    "assigned class": "inactive"
  },
  {
    "molecule": "Cc1ccccc1NC(=S)N/N=C(/c1ccccc1)c1ccccn1",
    "assigned class": "active"
  }
]

q: Entry "C[C@H](CCC(=O)NCCS(=O)(=O)O)[C@H]1CC[C@H]2[C@@H]3CC[C@@H]4C[C@H](O)CC[C@]4(C)[C@H]3CC[C@]12C" : call = ?
a: inactive

q: Entry CC(=O)OC1[C@H](OC(C)=O)C2=C(C)[C@@H](OC(C)=O)C[C@@]2(C(C)(C)O)[C@@H](OC(C)=O)[C@H]2[C@@]1(C)[C@@H](OC(C)=O)CC(OC(C)=O)[C@]21CO1 (stereo not given in full) : call = ?
a: inactive

q: Entry CC1=C/C(=N\N(C)C)C(C(O)(C(F)(F)F)C(F)(F)F)C(C)(C)C1 (stereo not given) : call = ?
a: inactive
